Listed next: entries and their corresponding protein stability index.
B1: C10orf62 (parent)
chain: TSECPSDKDKSPESHKAKNESWIK

Variants of: B1
test-summary: protein stability index of a GFP-peptide fusion (GPS, HEK-293T) (PSI 1-6); higher = more stable;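 further: lentivirally expressed fusions sorted by FACS into six bins by GFP to DsRed ratio, PSI derived from sequencing read proportions per bin multiplied by bin number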
experimental-setup: c terminus: a fixed tail appended

N19F
2.87
T1K
3.31
H15R
3.31
S21D
5.57

For the variant T1N , what protein stability index is on record?
3.38

What about A17F ?
3.42

What about P5D ?
3.84

What about S21N ?
5.12

What about C4F ?
3.33

What about P12E ?
3.15

What about S6P ?
3.37
